# pIC50 per record follows
# STUDY SYSTEM: androgen receptor (AR) (Homo sapiens)
# METHOD DESCRIPTION: MDA-MB-453 Androgen Receptor Transactivation Assay (PSA-Luc reporter, 3 nM DHT)
# Type: cell-based
# ASSAY CONTEXT: MDA-MB-453 cells, antagonism in presence of 3 nM DHT, 48 hour incubation
pIC50: −log10 of the molar value.
VALUE KIND: pIC50

[
  {
    "MOLECULE": "CCS(=O)(=O)N[C@H]1C[C@@]2(C)O[C@@]13CCO[C@H]1[C@@H]3[C@@H]2C(=O)N1c1cc(Cl)c(C#N)c(Cl)c1",
    "VALUE KIND": "pIC50",
    "OPERATOR": "=",
    "ENDPOINT VALUE": 6.66
  },
  {
    "MOLECULE": "CCC(=O)N[C@H]1C[C@@]2(C)O[C@@]13CCO[C@H]1[C@@H]3[C@@H]2C(=O)N1c1ccc(C#N)c(Cl)c1",
    "VALUE KIND": "pIC50",
    "OPERATOR": "=",
    "ENDPOINT VALUE": 5.25
  },
  {
    "MOLECULE": "CC(=O)N[C@@H]1[C@@H](O)[C@]23CCO[C@@H]4[C@H]2[C@@H](C(=O)N4c2ccc(C#N)c(C(F)(F)F)c2)[C@@]1(C)O3 (stereo in doubt)",
    "VALUE KIND": "pIC50",
    "OPERATOR": "=",
    "ENDPOINT VALUE": 5.31
  },
  {
    "MOLECULE": "CC[C@@]12O[C@]3(CCO[C@@H]4[C@H]3[C@H]1C(=O)N4c1ccc(C#N)c(C(F)(F)F)c1)C[C@@H]2O (single isomer, unassigned)",
    "VALUE KIND": "pIC50",
    "OPERATOR": "≤",
    "ENDPOINT VALUE": 5.12
  },
  {
    "MOLECULE": "C[C@@]12C[C@H](O)[C@]3(CCO[C@H]4[C@@H]3[C@]1(CO)C(=O)N4c1ccc(C#N)c(C(F)(F)F)c1)O2",
    "VALUE KIND": "pIC50",
    "OPERATOR": "=",
    "ENDPOINT VALUE": 5.26
  },
  {
    "MOLECULE": "C[C@@]12C[C@H](O)[C@]3(CO[C@H]4[C@@H]3[C@@H]1C(=O)N4c1ccc(C#N)c(C(F)(F)F)c1)O2",
    "VALUE KIND": "pIC50",
    "OPERATOR": "=",
    "ENDPOINT VALUE": 5.96
  },
  {
    "MOLECULE": "C[C@@]12C[C@@H](O)[C@]3(CCO[C@H]4[C@@H]3[C@@H]1C(=O)N4c1ccc(C#N)c(C(F)(F)F)c1)O2",
    "VALUE KIND": "pIC50",
    "OPERATOR": "=",
    "ENDPOINT VALUE": 6.55
  },
  {
    "MOLECULE": "COC(=O)N[C@@H]1C[C@@]23CCO[C@H]4[C@@H]2[C@H](C(=O)N4c2cc(Cl)c(C#N)c(Cl)c2)[C@]1(C)O3",
    "VALUE KIND": "pIC50",
    "OPERATOR": "=",
    "ENDPOINT VALUE": 6.93
  },
  {
    "MOLECULE": "C[C@@]12O[C@]3(CCO[C@@H]4[C@H]3[C@H]1C(=O)N4c1ccc(C#N)c(C(F)(F)F)c1)C[C@H]2N=[N+]=[N-]",
    "VALUE KIND": "pIC50",
    "OPERATOR": "<",
    "ENDPOINT VALUE": 5.12
  },
  {
    "MOLECULE": "N#Cc1ccc(N2C(=O)[C@H]3[C@H]4O[C@]5(CCO[C@@H]2[C@@H]35)C[C@@H]4O)cc1C(F)(F)F (single isomer, unassigned)",
    "VALUE KIND": "pIC50",
    "OPERATOR": "≤",
    "ENDPOINT VALUE": 5.12
  },
  {
    "MOLECULE": "CO/N=C1\\C[C@@]2(C)O[C@@]13CCO[C@H]1[C@@H]3[C@@H]2C(=O)N1c1ccc(C#N)c(C(F)(F)F)c1",
    "VALUE KIND": "pIC50",
    "OPERATOR": "=",
    "ENDPOINT VALUE": 7.51
  },
  {
    "MOLECULE": "C[C@]12O[C@@]3(CCO[C@@]4(C)[C@@H]3[C@@H]1C(=O)N4c1ccc(C#N)c(C(F)(F)F)c1)C[C@H]2O (single isomer, unassigned)",
    "VALUE KIND": "pIC50",
    "OPERATOR": "<",
    "ENDPOINT VALUE": 5.12
  }
]
